# System: Abutilon theophrasti (ABUTH)
# method: Biological Example 1 glasshouse assay for herbicidal activity
# Type: in vivo
# protocol_conditions: post-emergence, 312 h, post-emergence, 30 g/ha, 13 days after application, read-out: percentage phytotoxicity ABUTH
assay_readout: pest or weed control at 30 g/ha (%)
Write the answer as a number in %, unit excluded.

Query string: Lookup: pest or weed control at 30 g/ha / Abutilon theophrasti (ABUTH) / CC#Cc1cc(F)c(C2C(=O)C3CCC(C3)C2=O)c(OC(F)F)c1 (stereo not shown)
Result string: 0

Query string: Lookup: pest or weed control at 30 g/ha / Abutilon theophrasti (ABUTH) / CC#Cc1cc(Br)c(C2C(=O)C3CCC(C3)C2=O)c(OC)c1 (stereo not shown)
Result string: 0

Query string: Lookup: pest or weed control at 30 g/ha / Abutilon theophrasti (ABUTH) / CC#Cc1cc(F)c(C2=C(OC(=O)c3ccccc3)C3CCC(C3)C2=O)c(OC)c1 (stereo not shown)
Result string: 10

Query string: Lookup: pest or weed control at 30 g/ha / Abutilon theophrasti (ABUTH) / CC#Cc1cc(F)c(C2=C(OC(=O)C(C)(C)C)C3CCC(C3)C2=O)c(OC)c1 (stereo not shown) [Compound P1]
Result string: 0

Query string: Lookup: pest or weed control at 30 g/ha / Abutilon theophrasti (ABUTH) / CC#Cc1cc(F)c(C2=C(OC(=O)OCC)C3CCC(C3)C2=O)c(OC)c1 (stereo not shown) [Compound P2]
Result string: 30

Query string: Lookup: pest or weed control at 30 g/ha / Abutilon theophrasti (ABUTH) / CC#Cc1cc(F)c(C2=C(OC(=O)SCC)C3CCC(C3)C2=O)c(OC)c1 (stereo not shown)
Result string: 20

Query string: Lookup: pest or weed control at 30 g/ha / Abutilon theophrasti (ABUTH) / C#Cc1cc(F)c(C2C(=O)C3CCC(C3)C2=O)c(OC)c1 (stereo not shown)
Result string: 50

Query string: Lookup: pest or weed control at 30 g/ha / Abutilon theophrasti (ABUTH) / CC#Cc1cc(F)c(C2C(=O)C3CCC(C3)C2=O)c(OCC)c1 (stereo not shown)
Result string: 10

Query string: Lookup: pest or weed control at 30 g/ha / Abutilon theophrasti (ABUTH) / CC#Cc1cc(F)c(C2C(=O)C3CCC(C)(C2=O)C3(C)C)c(OC)c1 (stereo not shown)
Result string: 0

Query string: Lookup: pest or weed control at 30 g/ha / Abutilon theophrasti (ABUTH) / CC#Cc1cc(F)c(C2=C(OC(=O)OC(C)C)C3CCC(C3)C2=O)c(OC)c1 (stereo not shown)
Result string: 10

---

# Tested on: Amaranthus retroflexus (AMARE)
# method: Biological Example 1 glasshouse assay for herbicidal activity
# Format: in vivo
# protocol_conditions: Amaranthus retroflexus, pre-emergence, 312 h, pre-emergence, 250 g/ha, 13 days after application; read-out: percentage phytotoxicity AMARE
assay_readout: pest or weed control at 250 g/ha (%)
Write the answer as a number in %, unit excluded.

Query string: Looking for the measured pest or weed control at 250 g/ha of CC#Cc1cc(F)c(C2C(=O)C3CCC(C)(C2=O)C3(C)C)c(OC)c1 (stereo not drawn) [Compound A2] , can you help?
Result string: 40

Query string: Looking for the measured pest or weed control at 250 g/ha of CC#Cc1cc(F)c(C2=C(OC(=O)c3ccccc3)C3CCC(C3)C2=O)c(OC)c1 (stereo not drawn) [Compound P5] , can you help?
Result string: 70

Query string: Looking for the measured pest or weed control at 250 g/ha of CC#Cc1cc(F)c(C2C(=O)C3CCC(C3)C2=O)c(OCC)c1 (stereo not drawn) [Compound A4] , can you help?
Result string: 50

Query string: Looking for the measured pest or weed control at 250 g/ha of CC#Cc1cc(F)c(C2=C(OC(=O)C(C)(C)C)C3CCC(C3)C2=O)c(OC)c1 (stereo not drawn) [Compound P1] , can you help?
Result string: 70

Query string: Looking for the measured pest or weed control at 250 g/ha of CC#Cc1cc(F)c(C2=C(OC(=O)OCC)C3CCC(C3)C2=O)c(OC)c1 (stereo not drawn) [Compound P2] , can you help?
Result string: 70

Query string: Looking for the measured pest or weed control at 250 g/ha of CC#Cc1cc(Br)c(C2C(=O)C3CCC(C3)C2=O)c(OC)c1 (stereo not drawn) [Compound A3] , can you help?
Result string: 20

Query string: Looking for the measured pest or weed control at 250 g/ha of CC#Cc1cc(F)c(C2C(=O)C3CCC(C3)C2=O)c(OC)c1 (stereo not drawn) [Compound A1] , can you help?
Result string: 20

Query string: Looking for the measured pest or weed control at 250 g/ha of CC#Cc1cc(F)c(C2C(=O)C3CCC(C3)C2=O)c(OC(F)F)c1 (stereo not drawn) [Compound A7] , can you help?
Result string: 70

Query string: Looking for the measured pest or weed control at 250 g/ha of COc1cc(C#CCl)cc(F)c1C1C(=O)C2CCC(C2)C1=O (stereo not drawn) [Compound A8] , can you help?
Result string: 40
